- procedure.details: Semi-thermodynamic solubility
- Assay type: physicochemical
- condition: aqueous buffer, thermodynamic from solid; PBS; overnight; summary sheet
readout.kind: solubility thermodynamic (µM)

Reference set (2 entries):
* O=[N+]([O-])c1c(Cl)cc(O)c2c1C1C=CCC1C(c1ccc(Cl)cc1)N2 (stereo not shown) | 10.4
* N#Cc1c(Cl)cc(O)c2c1C1C=CCC1C(c1ccc(Cl)cc1)N2 (stereo not shown) | 24.8

(1) Oc1cc(Cl)cc2c1NC(c1ccccc1)C1CC=CC21 (stereo not shown)
(2) CC1(C)Cc2cccc(OCC(=O)Nc3nc4ccccc4s3)c2O1
Q: Record comparison, field solubility thermodynamic: mark the lower of 1 and 2 . State your choice using its label.
Result: 2
(2: 1.25 µM, 1: 2.18 µM)
